system: HCC44; experiment: Cytotoxicity against human HCC44 cells assessed as reduction in cell viability at 1 nM to 50 uM incubated for 96 hrs by Cell-titer Glo reagent based assay; format: functional
Calls of active or inactive are those of the source. The calls are words filed in the database; no cut-off is given here.
measured.parameter: Activity

[[record]]
chemical_string = "CC(C)C/C=C/C=C/C(=O)NC1=C[C@@](O)(CCC(N)=O)[C@H]2O[C@H]2[C@@H]1O"
measured_parameter = "Activity"
observed = "inactive"

[[record]]
chemical_string = "CC(C)/C=C/C=C/C(=O)NC1=C[C@@](O)(CCC(N)=O)[C@H]2O[C@H]2[C@@H]1O"
measured_parameter = "Activity"
observed = "inactive"

[[record]]
chemical_string = "CCC/C=C/C=C/C(=O)NC1=C[C@@](O)(CCC(N)=O)[C@H]2O[C@H]2[C@@H]1O"
measured_parameter = "Activity"
observed = "inactive"

[[record]]
chemical_string = "CC(C)C/C=C/C=C/C(=O)N(CCO)c1cc(CCC(=O)O)c(O)cc1O"
measured_parameter = "Activity"
observed = "inactive"


// next item, Activity requested
Given CC(C)C/C=C/C=C/C(=O)N[C@H]1CCCNC1=O , state its recorded Activity. inactive

Source: ChEMBL document CHEMBL4184134
